# Target or test system: mTOR (Homo sapiens)
# Construct: purchased Invitrogen Corporation (Carlsbad/Calif., USA) PV4753
# Sequence (P42345 1360-2549 limits assumed): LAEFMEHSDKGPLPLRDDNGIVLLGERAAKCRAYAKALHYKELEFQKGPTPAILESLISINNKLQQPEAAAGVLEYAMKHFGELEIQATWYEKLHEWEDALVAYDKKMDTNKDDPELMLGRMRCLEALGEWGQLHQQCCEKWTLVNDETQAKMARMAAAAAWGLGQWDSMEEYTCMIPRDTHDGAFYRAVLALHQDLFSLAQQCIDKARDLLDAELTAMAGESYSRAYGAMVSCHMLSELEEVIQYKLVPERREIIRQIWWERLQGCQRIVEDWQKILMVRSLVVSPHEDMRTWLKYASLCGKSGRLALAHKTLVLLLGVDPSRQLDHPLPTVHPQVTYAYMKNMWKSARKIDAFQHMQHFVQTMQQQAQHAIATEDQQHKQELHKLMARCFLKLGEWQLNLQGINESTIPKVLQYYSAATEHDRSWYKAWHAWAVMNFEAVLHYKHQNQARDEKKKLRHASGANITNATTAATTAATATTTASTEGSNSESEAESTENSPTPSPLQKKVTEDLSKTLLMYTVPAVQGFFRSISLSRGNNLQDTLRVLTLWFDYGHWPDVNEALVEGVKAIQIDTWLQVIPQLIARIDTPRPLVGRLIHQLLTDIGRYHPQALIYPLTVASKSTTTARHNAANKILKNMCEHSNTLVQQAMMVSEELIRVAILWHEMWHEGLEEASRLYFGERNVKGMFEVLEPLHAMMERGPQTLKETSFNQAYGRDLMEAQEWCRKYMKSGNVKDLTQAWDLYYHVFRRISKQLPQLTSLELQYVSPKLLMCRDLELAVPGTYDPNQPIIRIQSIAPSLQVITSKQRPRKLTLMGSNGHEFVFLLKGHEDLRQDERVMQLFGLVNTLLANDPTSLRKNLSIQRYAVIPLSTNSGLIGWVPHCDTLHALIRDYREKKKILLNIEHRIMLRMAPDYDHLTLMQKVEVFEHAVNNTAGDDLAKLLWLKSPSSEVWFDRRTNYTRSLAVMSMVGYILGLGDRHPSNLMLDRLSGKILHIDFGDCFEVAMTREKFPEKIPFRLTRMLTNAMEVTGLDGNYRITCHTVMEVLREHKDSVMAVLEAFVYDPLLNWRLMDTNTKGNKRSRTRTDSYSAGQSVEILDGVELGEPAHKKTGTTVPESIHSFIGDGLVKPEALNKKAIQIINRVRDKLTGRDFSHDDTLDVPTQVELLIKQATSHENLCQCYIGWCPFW
# Experiment description: Biochemical assay for m-TOR by TR-FRET
# Conditions used: read-out: EPK_mTOR/IC50
A collection of compounds and their measured pIC50
# pIC50 is unitless: minus log10 of the molar concentration; print number only

Solved entries:
>>> df
                                test_smiles  test_value
0  CCNc1ncc(-c2ccc3ncc4c(c3c2)n(-c2ccc(N3CC[C@@H](O)C3)nc2C)c(=O)n4C)cc1C(F)(F)F        7.44
1  COc1cc(-c2ccc3ncc4c(c3c2)n(-c2ccc(N(C)C)nc2C)c(=O)n4C)cnc1CO        7.38
2  CNc1cc(-c2ccc3ncc4c(c3c2)n(-c2cccnc2C)c(=O)n4C)cnc1C        8.15
3  Cc1nc(N2CC(F)(F)C(F)(F)C2)ccc1-n1c(=O)n(C)c2cnc3ccc(-c4cnc(N)c(CO)c4)cc3c21        7.18

[Q] Determine its reported pIC50: COc1cc(-c2ccc3ncc4c(c3c2)n(-c2ccc(N3CC(F)(F)C(F)(F)C3)nc2C)c(=O)n4C)cnc1CO
[A] 6.76

[Q] Determine its reported pIC50: COc1ncc(-c2ccc3ncc4c(c3c2)n(-c2ccc(N3CC[C@H](O)C3)nc2C)c(=O)n4C)c(OC)n1
[A] 7.82

[Q] Determine its reported pIC50: CCNc1cc(-c2ccc3ncc4c(c3c2)n(-c2ccc(OCCOC)nc2C)c(=O)n4C)cnc1C
[A] 8.22

Every entry's value here was drawn from patent US20100311714A1.
